Each recorded value in this set is attributed to paper PMC9772450.

# Assay procedure: Release of ADE651 from gel solution in vivo (single-dose pharmacokinetics)
# Parameters: species or system Sprague-Dawley rats
# Stated conditions: male, Sprague-Dawley, sc; rat, subcutaneous, 200 µL of 16% solution (32 mg); plasma, ADM2 EIA; three animals; read-out: Time of peak circulating level after administration
Parameter measured: Tmax (h)

1. CCCCCCCCCCCCCCCC(=O)N[C@@H](CCCCN)C(=O)N[C@H](C(=O)N[C@@H](CCC(N)=O)C(=O)N[C@@H](CCCCN)C(=O)N[C@@H](CC(C)C)C(=O)N[C@@H](CO)C(=O)N[C@@H](C)C(=O)N1CCC[C@H]1C(=O)N[C@H](C(=O)N[C@@H](CC(=O)O)C(=O)N1CCC[C@H]1C(=O)N[C@@H](CO)C(=O)N[C@@H](CO)C(=O)N1CCC[C@H]1C(=O)N[C@@H](Cc1c[nH]cn1)C(=O)N[C@@H](CO)C(=O)N[C@@H](Cc1ccc(O)cc1)C(N)=O)C(C)C)C(C)C [ADE651]	8
